Attribution: ChEMBL document CHEMBL1154802

test system: T47D; assay: Antiestrogenic activity in human T47D cells assessed as drug level causing inhibition of 100 pM E2-enhanced cell proliferation to level equivalent to 50 pM E2 after 96 hrs by alamar blue assay; format: functional
METRIC_NAME: Activity

May I ask what Activity has been recorded for COc1cc(O[C@@H]2O[C@H](CO)[C@@H](O)[C@H](O)[C@H]2O)cc(OC)c1O [KOABURASIDE] ? 2 µM

May I ask what Activity has been recorded for COc1cc(O)ccc1O[C@@H]1O[C@H](CO[C@@H]2OC[C@@H](O)[C@H](O)[C@H]2O)[C@@H](O)[C@H](O)[C@H]1O [CAPPAROSIDE A] ? <0.1 µM

May I ask what Activity has been recorded for C[C@@H](/C=C/[C@]1(O)[C@]2(C)CO[C@@]1(C)CC(=O)C2)O[C@@H]1O[C@H](CO)[C@@H](O)[C@H](O)[C@H]1O [SPIONOSIDE B] ? 0.2 µM

May I ask what Activity has been recorded for COc1cc(O[C@@H]2O[C@H](CO)[C@@H](O)[C@H](O)[C@H]2O)ccc1O [TACHIOSIDE] ? <0.1 µM

May I ask what Activity has been recorded for "COc1cc([C@H](O[C@@H]2O[C@H](CO)[C@@H](O)[C@H](O)[C@H]2O)[C@@H](CO)Oc2c(OC)cc(/C=C/CO)cc2OC)ccc1O" ? <0.1 µM

May I ask what Activity has been recorded for COc1cc(/C=C/C(=O)O[C@H]2C[C@@H]3C(C(=O)O)=CO[C@@H](O[C@@H]4O[C@H](CO)[C@@H](O)[C@H](O)[C@H]4O)[C@@H]3[C@@H]2C)ccc1O [KHAINAOSIDE B] ? <0.1 µM

---

Give Activity for every item shown.
tested on: T47D; test: Antiestrogenic activity in human T47D cells assessed as drug level causing inhibition of 100 pM E2-enhanced cell proliferation to level equivalent to 50 pM E2 after 96 hrs by alamar blue assay; format: functional

May I ask what Activity has been recorded for "COc1cc([C@H]2OC[C@H]3[C@@H]2CO[C@@H]3c2cc(OC)c(O[C@@H]3O[C@H](CO)[C@@H](O)[C@H](O)[C@H]3O)c(OC)c2)ccc1O" ? <0.1 µM

May I ask what Activity has been recorded for COc1cc([C@H]2OC[C@H]3[C@@H]2CO[C@@H]3c2cc(OC)c(O)c(OC)c2)cc(OC)c1O [SYRINGARESINOL] ? <0.1 µM

May I ask what Activity has been recorded for COc1cc(O)cc(OC)c1O[C@@H]1O[C@H](CO)[C@@H](O)[C@H](O)[C@H]1O [LEONURISIDE] ? 0.4 µM

May I ask what Activity has been recorded for OC[C@H]1O[C@@H](Oc2cc([C@H]3OC[C@]4(O)[C@@H](c5ccc6c(c5)OCO6)OC[C@]34O)ccc2O)[C@H](O)[C@@H](O)[C@@H]1O [KHAINAOSIDE A] ? <0.1 µM

May I ask what Activity has been recorded for COc1cc(/C=C/CO)ccc1O[C@@H]1O[C@H](COC(=O)/C=C/c2ccc(O)c(O)c2)[C@@H](O)[C@H](O)[C@H]1O [KHAINAOSIDE C] ? <0.1 µM

May I ask what Activity has been recorded for Nc1ncnc2c1ncn2[C@@H]1O[C@H](CO)[C@@H](O)[C@H]1O [ADENOSINE] ? 2 µM

May I ask what Activity has been recorded for "COc1cc([C@H]2OC[C@H]3[C@@H]2CO[C@@H]3c2cc(OC)c(O[C@@H]3O[C@H](CO)[C@@H](O)[C@H](O)[C@H]3O)c(OC)c2)cc(OC)c1O" ? <0.1 µM

May I ask what Activity has been recorded for OC[C@@H]1Oc2ccc([C@H]3OC[C@H]4[C@@H]3CO[C@@H]4c3ccc(O)c(O)c3)cc2O[C@H]1c1ccc(O)c(O)c1 [PRINCEPIN] ? 0.4 µM

May I ask what Activity has been recorded for COc1cc([C@H]2OC[C@H]3[C@@H]2CO[C@@H]3c2cc(OC)c(O)c(OC)c2)ccc1O[C@@H]1O[C@H](CO)[C@@H](O)[C@H](O)[C@H]1O [ISOEUCOMMIN A] ? <0.1 µM

May I ask what Activity has been recorded for "COc1cc(C[C@H](CO)[C@@H](CO[C@@H]2O[C@H](CO)[C@@H](O)[C@H](O)[C@H]2O)Cc2cc(OC)c(O)c(OC)c2)cc(OC)c1O" ? 0.6 µM

May I ask what Activity has been recorded for CC/C(=C(\c1ccccc1)c1ccc(OCCN(C)C)cc1)c1ccccc1 [TAMOXIFEN] ? 0.1 µM

May I ask what Activity has been recorded for "COc1cc([C@H]2OC[C@H]3[C@@H]2CO[C@@H]3c2ccc(O[C@@H]3O[C@H](CO)[C@@H](O)[C@H](O)[C@H]3O)c(OC)c2)ccc1O" ? <0.1 µM

May I ask what Activity has been recorded for O=c1cc(-c2ccc(O)cc2)oc2cc(O[C@@H]3O[C@H](CO)[C@@H](O)[C@H](O)[C@H]3O)cc(O)c12 [APIGETRIN] ? <0.1 µM

May I ask what Activity has been recorded for "COc1cc([C@H]2Oc3c(OC)cc(/C=C/CO)cc3[C@@H]2CO)ccc1O[C@@H]1O[C@H](CO)[C@@H](O)[C@H](O)[C@H]1O" ? <0.1 µM

May I ask what Activity has been recorded for "CCCc1ccc(O[C@@H]2O[C@H](CO)[C@@H](O)[C@H](O)[C@H]2O)c(OC)c1" ? <0.1 µM

May I ask what Activity has been recorded for OC/C=C/c1ccc2c(c1)O[C@H](c1ccc(O)c(O)c1)[C@@H](CO)O2 [ISOAMERICANOL A] ? <0.1 µM

May I ask what Activity has been recorded for "Oc1ccc([C@H]2OC[C@H]3[C@@H]2CO[C@@H]3c2ccc(O)c(O)c2)cc1O" ? 0.2 µM

---

Give Activity for every item shown.
test system: MCF7; assay: Antiestrogenic activity in human MCF7 cells assessed as drug level causing inhibition of 100 pM E2-enhanced cell proliferation to level equivalent to 1 pM E2 after 96 hrs by alamar blue assay; type: functional

May I ask what Activity has been recorded for COc1cc(/C=C/C(=O)O[C@H]2C[C@@H]3C(C(=O)O)=CO[C@@H](O[C@@H]4O[C@H](CO)[C@@H](O)[C@H](O)[C@H]4O)[C@@H]3[C@@H]2C)ccc1O [KHAINAOSIDE B] ? >100 µM

May I ask what Activity has been recorded for "COc1cc([C@H]2OC[C@H]3[C@@H]2CO[C@@H]3c2cc(OC)c(O[C@@H]3O[C@H](CO)[C@@H](O)[C@H](O)[C@H]3O)c(OC)c2)ccc1O" ? >100 µM

May I ask what Activity has been recorded for "CCCc1ccc(O[C@@H]2O[C@H](CO)[C@@H](O)[C@H](O)[C@H]2O)c(OC)c1" ? 0.4 µM

May I ask what Activity has been recorded for "O=c1cc(-c2ccc(O)cc2)oc2cc(O[C@@H]3O[C@H](CO)[C@@H](O)[C@H](O)[C@H]3O)cc(O)c12" ? >100 µM

---

test system: T47D; assay: Antiestrogenic activity in human T47D cells assessed as drug level causing inhibition of 100 pM E2-enhanced cell proliferation to level equivalent to 1 pM E2 after 96 hrs by alamar blue assay; type: functional
Give Activity for every item shown.

May I ask what Activity has been recorded for COc1cc(O[C@@H]2O[C@H](CO)[C@@H](O)[C@H](O)[C@H]2O)ccc1O [TACHIOSIDE] ? >100 µM

May I ask what Activity has been recorded for "Nc1ncnc2c1ncn2[C@@H]1O[C@H](CO)[C@@H](O)[C@H]1O" ? >100 µM

May I ask what Activity has been recorded for "COc1cc([C@H]2OC[C@H]3[C@@H]2CO[C@@H]3c2cc(OC)c(O[C@@H]3O[C@H](CO)[C@@H](O)[C@H](O)[C@H]3O)c(OC)c2)cc(OC)c1O" ? >100 µM

May I ask what Activity has been recorded for "CC/C(=C(\c1ccccc1)c1ccc(OCCN(C)C)cc1)c1ccccc1" ? 9 µM
